Test: PK study in rats (oral)
Format: in vivo
Conditions: Sprague-Dawley, rat, plasma; Male SD, 1 mg/kg oral
QUANTITY_KIND: Cmax (ng/mL)
One number for each entry, in ng/mL.

Query: Cmax; subject: `CNC(=O)c1ccc2ccn(C3CCN(CCc4c(OC)ccc5c4OC(C)(C)CC5=O)CC3)c2c1.O=C(O)/C=C/C(=O)O`
48.1
